Tested on: hypoxia-induced HIF transcriptional activity
MEASUREMENT NOTES: HRE-luciferase reporter assay in LN229-HRE-luciferase glioma cells
Type: cell-based
ASSAY SETUP: Glioma cell, read-out: IC50, HRE-luciferase reporter inhibitory activity
Description: These analogs were first evaluated for their ability to inhibit hypoxia-induced HIF transcriptional activity in LN229-HRE-luciferase glioma cells as described previously. Their inhibitory activities are presented as IC50 in Table 1. All the analogs were assessed for their ability to inhibit the HIF-1 pathway using a luciferase reporter assay described previously. This assay reports the ability for a compound to inhibit HIF transcriptional activity. […]
The reader will find reported IC50 values listed item by item below.
READOUT LABEL: IC50

chemical_string=COc1ccc(S(=O)(=O)N(Cc2cccc(CN3CCOCC3)c2)C2CCC2)cc1OC readout_label=IC50 data_value="> 5 µM"
chemical_string=COc1ccc(S(=O)(=O)N(Cc2ccc(N3CCOCC3)cc2)c2ccccc2)cc1OC readout_label=IC50 data_value="3.8 µM"
chemical_string=COc1ccc(S(=O)(=O)N(Cc2ccc(CN3CCOCC3)cc2)c2ccccc2)cc1OC readout_label=IC50 data_value="0.9 µM"
chemical_string=COc1ccc(S(=O)(=O)N(Cc2ccc(CN3CCOCC3)cc2)C2CCC2)cc1OC readout_label=IC50 data_value="1 µM"
chemical_string=COc1ccc(S(=O)(=O)N(CCN2CCOCC2)Cc2ccc3c(c2)C=CC(C)(C)O3)cc1OC readout_label=IC50 data_value="> 5 µM"
chemical_string=COc1ccc(S(=O)(=O)N(Cc2ccc(N3CCOCC3)cc2)C2CCC2)cc1OC readout_label=IC50 data_value="~2.6 µM"
chemical_string=COc1ccc(S(=O)(=O)N(Cc2cccc(CN3CCOCC3)c2)c2ccccc2)cc1OC readout_label=IC50 data_value="> 5 µM"
chemical_string=COc1ccc(S(=O)(=O)N(CCCN2CCOCC2)Cc2ccc3c(c2)C=CC(C)(C)O3)cc1OC readout_label=IC50 data_value="> 5 µM"
chemical_string=CC1(C)C=Cc2cc(CN(C3CCC3)S(=O)(=O)N3CCOCC3)ccc2O1 readout_label=IC50 data_value="> 5 µM"
chemical_string=CC1(C)C=Cc2cc(CN(c3ccccc3)S(=O)(=O)N3CCOCC3)ccc2O1 readout_label=IC50 data_value="> 5 µM"
